Consider the following molecules; for each one, report its EC50 μg/ml (Functional Avidity).
Target: KRAS-G12V antigen peptide (Homo sapiens, UniProt P01116, G12V)
Test: Emax and EC50 (functional avidity) of TCR MHC-II binding region mutants, Jurkat-NFAT-Luc with peptide-loaded SW620-DPB cells
Type: cell-based
Parameters: expressed in transfected cells; host or cells: SW620-DPB cells (SW620 expressing HLA-DPB1*03:01); the peptide is synthetic
Settings: G12V antigen peptide 10 μg/ml, 10-fold dilution, 5 concentrations
Numbers only here, please. The scale is µg/mL.

Name the recorded EC50 μg/ml (Functional Avidity) for β56Q-L (TCR) TCR alpha: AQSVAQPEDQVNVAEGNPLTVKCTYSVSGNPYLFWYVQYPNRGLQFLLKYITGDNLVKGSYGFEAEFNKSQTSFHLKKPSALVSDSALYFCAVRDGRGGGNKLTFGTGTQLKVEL TCR beta: GITQSPKYLFRKEGQNVTLSCEQNLNHDAMYWYRQDPGQGLRLIYYSQIVNDFLKGDIAEGYSVSREKKESFPLTVTSAQKNPTAFYLCASSPGQRDNSPLHFGNGTRLTVT . 1.412

Name the recorded EC50 μg/ml (Functional Avidity) for β56Q-A (TCR) TCR alpha: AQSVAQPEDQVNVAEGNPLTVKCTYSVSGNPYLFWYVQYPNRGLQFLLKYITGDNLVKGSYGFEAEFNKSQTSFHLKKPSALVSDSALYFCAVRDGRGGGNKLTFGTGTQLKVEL TCR beta: GITQSPKYLFRKEGQNVTLSCEQNLNHDAMYWYRQDPGQGLRLIYYSQIVNDFAKGDIAEGYSVSREKKESFPLTVTSAQKNPTAFYLCASSPGQRDNSPLHFGNGTRLTVT . 0.859

Name the recorded EC50 μg/ml (Functional Avidity) for α51I-Y: B13.14.1 TCR Vα point mutant (protein) TCR alpha: AQSVAQPEDQVNVAEGNPLTVKCTYSVSGNPYLFWYVQYPNRGLQFLLKYYTGDNLVKGSYGFEAEFNKSQTSFHLKKPSALVSDSALYFCAVRDGRGGGNKLTFGTGTQLKVEL TCR beta: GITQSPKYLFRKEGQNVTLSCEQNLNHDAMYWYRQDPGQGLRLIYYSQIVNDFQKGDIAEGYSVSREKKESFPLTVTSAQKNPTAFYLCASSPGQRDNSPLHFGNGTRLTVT . 0.894
